Tgt: Type 1 InsP3 receptor isoform S2 (Sus scrofa)
Sequence (P79248 whole entry, canonical isoform): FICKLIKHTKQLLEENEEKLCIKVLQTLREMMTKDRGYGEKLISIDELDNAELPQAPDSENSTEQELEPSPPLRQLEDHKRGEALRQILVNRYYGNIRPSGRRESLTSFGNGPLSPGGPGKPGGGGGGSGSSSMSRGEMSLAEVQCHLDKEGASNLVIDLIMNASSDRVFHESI
Experimental details: Binding affinity against IP3 receptor in pig cerebellar membranes at a pH of 7.6 using [3H]Ins(1,4,5)P3 as the radioligand.
Type: cell membranes, Cerebellum, Membrane
pIC50: −log10 of the molar value.
Entries and their measured pIC50 follow.
Metric: pIC50

Compound: OC1C(O)C(OP(O)(O)=S)C(OP(O)(O)=S)C(O)C1OP(O)(O)=S (configuration not stated)
Endpoint value: 7.21

Compound: NC1C(O)C(OP(=O)(O)O)C(O)C(OP(=O)(O)O)C1OP(=O)(O)O (configuration not stated)
Endpoint value: 5.25
